Target: hTLR9 (Homo sapiens)
Construct: expressed in transfected cells
Sequence (Q9NR96 26-1032): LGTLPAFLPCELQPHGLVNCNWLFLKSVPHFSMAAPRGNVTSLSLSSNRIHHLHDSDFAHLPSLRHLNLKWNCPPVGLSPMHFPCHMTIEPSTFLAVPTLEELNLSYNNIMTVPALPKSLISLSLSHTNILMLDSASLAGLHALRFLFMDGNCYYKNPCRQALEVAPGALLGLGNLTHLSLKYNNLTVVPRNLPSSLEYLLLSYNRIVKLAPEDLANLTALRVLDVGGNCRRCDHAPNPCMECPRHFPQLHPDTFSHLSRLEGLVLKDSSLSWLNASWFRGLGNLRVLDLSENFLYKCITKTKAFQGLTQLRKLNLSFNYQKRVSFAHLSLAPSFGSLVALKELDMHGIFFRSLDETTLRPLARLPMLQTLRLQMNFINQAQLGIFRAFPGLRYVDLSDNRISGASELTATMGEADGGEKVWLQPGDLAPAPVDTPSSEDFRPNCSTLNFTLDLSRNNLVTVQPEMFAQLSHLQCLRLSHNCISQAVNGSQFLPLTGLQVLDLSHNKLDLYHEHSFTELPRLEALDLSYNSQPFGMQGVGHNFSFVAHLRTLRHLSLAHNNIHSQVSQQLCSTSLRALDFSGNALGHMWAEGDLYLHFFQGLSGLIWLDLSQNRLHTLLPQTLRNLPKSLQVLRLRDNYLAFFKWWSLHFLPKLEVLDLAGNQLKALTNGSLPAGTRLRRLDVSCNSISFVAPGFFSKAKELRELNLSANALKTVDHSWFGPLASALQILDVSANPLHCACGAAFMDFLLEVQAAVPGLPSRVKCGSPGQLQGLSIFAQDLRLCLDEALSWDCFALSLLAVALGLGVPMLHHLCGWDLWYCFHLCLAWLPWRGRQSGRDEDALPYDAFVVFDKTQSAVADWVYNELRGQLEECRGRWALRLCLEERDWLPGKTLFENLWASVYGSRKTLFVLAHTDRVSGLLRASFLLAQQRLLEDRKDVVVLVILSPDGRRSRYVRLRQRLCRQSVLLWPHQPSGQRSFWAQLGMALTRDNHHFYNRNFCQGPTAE
Assay: hTLR9 antagonism IC50, hTLR9-NFkB-293 cells, luciferase readout, CpG-ODN 2006 (Examples 8 and 18, Tables 19 and 20)
Type: cell-based
Conditions: hTLR9-NFkB-293 cells, EC50 dose of CpG-ODN 2006, 16 h; Table 20 diarylmethanes; read-out: hTLR9 (IC50 dose for blockade of a CpG ODN-generated signal)
ATTRIBUTE MEASURED: IC50 (nM)
Give a bare numeral; the unit nM is implied.

Below are worked cases with known answers.
INSERT INTO measurements (molecule, unit_of_measurement, recorded_measurement) VALUES
  ('CN(C)CCOC(c1ccccc1)c1ccc(N2CCN(C)CC2)cc1 (stereo not shown)', 'nM', 372),
  ('CN1CCN(c2ccc(/C(=N\O)c3ccccc3)cc2)CC1', 'nM', 11600),
  ('CN1CCN(c2ccc(C(c3ccccc3)N3CCN(C)CC3)cc2)CC1 (stereo not shown)', 'nM', 3950);

// next entry
Enquiry: Record request: IC50 value, item CN(C)CCNC(c1ccccc1)c1ccc(N2CCN(C)CC2)cc1 (stereo not shown)
Return: 241

Origin of values: patent US7410975B2
